Reference for the values: PubChem BioAssay AID1963979

Test system: 361931-004-R-J1-PDC multicell spheroid viability
ASSAY OVERVIEW: Anticancer human tumor 361931-004-R-J1-PDC patient-derived colon adenocarcinoma cell line growth inhibition [PI3K]
CONDITION SET: curve of first compound; second compound 1 µM
Description: Combinatorial screen of targeted agents with the PI3K inhibitors inavolisib, alpelisib, duvelisib, and copanlisib in multi-cell type tumor spheroids A high-throughput screen of multi-cell type tumor spheroids was designed to identify active combinations of targeted small molecules and PI3K pathway inhibitors. […] Compounds. […] If the clinical Cmax for an agent had not been determined, the highest concentration tested was 10 microM. […]
Kindly state IC50 for each of the entries shown.

Provide value of IC50 for this record tested with 361931-004-R-J1-PDC multicell spheroid viability: CCCS(=O)(=O)Nc1ccc(F)c(C(=O)c2c[nH]c3ncc(-c4ccc(Cl)cc4)cc23)c1F + COc1c(OCCCN2CCOCC2)ccc2c3n(c(=NC(=O)c4cnc(N)nc4)nc12)CCN3
< 31.6 nM

Enter reported IC50 observed with 361931-004-R-J1-PDC multicell spheroid viability for CNC(=O)c1ccc(N2C(=S)N(c3ccc(C#N)c(C(F)(F)F)c3)C(=O)C2(C)C)cc1F + CC(Nc1ncnc2nc[nH]c12)c1cc2cccc(Cl)c2c(=O)n1-c1ccccc1
> 10000 nM

Provide the documented IC50 with 361931-004-R-J1-PDC multicell spheroid viability as the system for CC(=O)c1c(C)c2cnc(Nc3ccc(N4CCNCC4)cn3)nc2n(C2CCCC2)c1=O + CC(Nc1ncnc2nc[nH]c12)c1cc2cccc(Cl)c2c(=O)n1-c1ccccc1
> 100 nM

====

Assignment: determine reported viability, T/C for the given compounds.
Test system: 361931-004-R-J1-PDC multicell spheroid viability
ASSAY OVERVIEW: Anticancer human tumor 361931-004-R-J1-PDC cell line growth inhibition [PI3K];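 also: spheroids exposed to agents for seven days before readout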
CONDITION SET: second compound 10 µM; first compound 3.16 µM; stronger effect = lower value

Form field - read-out: viability, T/C; system: 361931-004-R-J1-PDC multicell spheroid viability; submitted item: CCCS(=O)(=O)Nc1ccc(F)c(C(=O)c2c[nH]c3ncc(-c4ccc(Cl)cc4)cc23)c1F + CC(Nc1ncnc2nc[nH]c12)c1cc2cccc(Cl)c2c(=O)n1-c1ccccc1
78.1%

# query: viability, T/C | item C#Cc1c(F)ccc2cc(O)cc(-c3ncc4c(N5CC6CCC(C5)N6)nc(OCC56CCCN5CC(F)C6)nc4c3F)c12 (stereo unspecified) + Cc1nc(NC(=O)N2CCCC2C(N)=O)sc1-c1ccnc(C(C)(C)C(F)(F)F)c1 | system: 361931-004-R-J1-PDC multicell spheroid viability
39.2%

Requested read-out viability, T/C, target or system 361931-004-R-J1-PDC multicell spheroid viability, entry C=CC(=O)N1CCN(c2nc(=O)n(-c3c(C)ccnc3C(C)C)c3nc(-c4c(O)cccc4F)c(F)cc23)C(C)C1 (stereo unspecified) + Cc1nc(NC(=O)N2CCCC2C(N)=O)sc1-c1ccnc(C(C)(C)C(F)(F)F)c1
57.8%

Query for 361931-004-R-J1-PDC multicell spheroid viability: what viability, T/C does the record show for CC1(C)CCC(CN2CCN(c3ccc(C(=O)NS(=O)(=O)c4ccc(NCC5CCOCC5)c([N+](=O)[O-])c4)c(Oc4cnc5[nH]ccc5c4)c3)CC2)=C(c2ccc(Cl)cc2)C1 + CC(Nc1ncnc2nc[nH]c12)c1cc2cccc(Cl)c2c(=O)n1-c1ccccc1 ?
80.1%

So what viability, T/C did Cn1ncc(Cl)c1-c1cc(C(=O)NC(CN)Cc2cccc(F)c2)sc1Cl (stereo unspecified) + Cc1nc(NC(=O)N2CCCC2C(N)=O)sc1-c1ccnc(C(C)(C)C(F)(F)F)c1 get with 361931-004-R-J1-PDC multicell spheroid viability?
20.6%

Value wanted: viability, T/C (361931-004-R-J1-PDC multicell spheroid viability) of entry Cn1nccc1Nc1nccc(-c2ccn(C(CO)c3ccc(Cl)c(F)c3)c(=O)c2)n1 (stereo unspecified) + CC(Nc1ncnc2nc[nH]c12)c1cc2cccc(Cl)c2c(=O)n1-c1ccccc1
64.1%

Any idea what viability, T/C came out for C[C@@H](NC(=O)c1ncnc(N)c1Cl)c1ncc(C(=O)Nc2cc(C(F)(F)F)c(Cl)cn2)s1 + CC(Nc1ncnc2nc[nH]c12)c1cc2cccc(Cl)c2c(=O)n1-c1ccccc1 on 361931-004-R-J1-PDC multicell spheroid viability?
104%

Notebook entry, 361931-004-R-J1-PDC multicell spheroid viability assay: viability, T/C of CNC(=O)c1ccc(N2C(=S)N(c3ccc(C#N)c(C(F)(F)F)c3)C(=O)C2(C)C)cc1F + Cc1nc(NC(=O)N2CCCC2C(N)=O)sc1-c1ccnc(C(C)(C)C(F)(F)F)c1 = ?
76.1%

Form: Entry = C#Cc1c(F)ccc2cc(O)cc(-c3ncc4c(N5CC6CCC(C5)N6)nc(OCC56CCCN5CC(F)C6)nc4c3F)c12 (stereo unspecified) + CC(Nc1ncnc2nc[nH]c12)c1cc2cccc(Cl)c2c(=O)n1-c1ccccc1 | System = 361931-004-R-J1-PDC multicell spheroid viability | viability, T/C = ____
90%

What is its viability, T/C for 361931-004-R-J1-PDC multicell spheroid viability? Entry: CNC(=O)c1ccc(N2C(=S)N(c3ccc(C#N)c(C(F)(F)F)c3)C(=O)C2(C)C)cc1F + CC(Nc1ncnc2nc[nH]c12)c1cc2cccc(Cl)c2c(=O)n1-c1ccccc1
112%

Kindly state the measured viability, T/C obtained for CC1(C)CCC(Nc2ncc(C(F)(F)F)c(-c3c[nH]c4c(P(C)(C)=O)c(C#N)ccc34)n2)CN1 (stereo unspecified) + CC(Nc1ncnc2nc[nH]c12)c1cc2cccc(Cl)c2c(=O)n1-c1ccccc1 with 361931-004-R-J1-PDC multicell spheroid viability.
74%

====

Test system: 361931-004-R-J1-PDC multicell spheroid viability
ASSAY OVERVIEW: Anticancer human tumor 361931-004-R-J1-PDC cell line growth inhibition [PI3K];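 also: spheroids exposed to agents for seven days before readout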
CONDITION SET: curve of first compound; second compound 1 µM
pIC50: −log10 of the molar value.
READOUT TYPE: pIC50

What value of pIC50 has been recorded for this entry: C=CC(=O)N1CCN(c2nc(=O)n(-c3c(C)ccnc3C(C)C)c3nc(-c4c(O)cccc4F)c(F)cc23)C(C)C1 (stereo not drawn) + CC(Nc1ccc2c(c1)OCCn1cc(N3C(=O)OCC3C(F)F)nc1-2)C(N)=O
< 5.00

Param item = Cn1ncnc1[C@H]1c2n[nH]c(=O)c3cc(F)cc(c23)N[C@@H]1c1ccc(F)cc1 + CC(Nc1ncnc2nc[nH]c12)c1cc2cccc(Cl)c2c(=O)n1-c1ccccc1 ; retrieve measured pIC50.
< 7.00

Look up pIC50: CNC(=O)c1ccc(N2C(=S)N(c3ccc(C#N)c(C(F)(F)F)c3)C(=O)C2(C)C)cc1F + CC(Nc1ccc2c(c1)OCCn1cc(N3C(=O)OCC3C(F)F)nc1-2)C(N)=O
< 5.00

====

Test system: 361931-004-R-J1-PDC multicell spheroid viability
ASSAY OVERVIEW: Anticancer human tumor 361931-004-R-J1-PDC cell line growth inhibition [PI3K];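 also: spheroids exposed to agents for seven days before readout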
CONDITION SET: second compound 1 µM; first compound 0.1 µM; stronger effect = lower value
READOUT TYPE: viability, T/C (%)
Kindly answer with a numeric value in %, unit omitted.

Form field - read-out: viability, T/C; system: 361931-004-R-J1-PDC multicell spheroid viability; submitted item: CC1(C)CCC(CN2CCN(c3ccc(C(=O)NS(=O)(=O)c4ccc(NCC5CCOCC5)c([N+](=O)[O-])c4)c(Oc4cnc5[nH]ccc5c4)c3)CC2)=C(c2ccc(Cl)cc2)C1 + CC(Nc1ccc2c(c1)OCCn1cc(N3C(=O)OCC3C(F)F)nc1-2)C(N)=O
80.7

Report viability, T/C for CCN1CCN(Cc2ccc(Nc3ncc(F)c(-c4cc(F)c5nc(C)n(C(C)C)c5c4)n3)nc2)CC1 + CC(Nc1ncnc2nc[nH]c12)c1cc2cccc(Cl)c2c(=O)n1-c1ccccc1 tested on 361931-004-R-J1-PDC multicell spheroid viability.
104

// map Cn1ncnc1[C@H]1c2n[nH]c(=O)c3cc(F)cc(c23)N[C@@H]1c1ccc(F)cc1 + COc1c(OCCCN2CCOCC2)ccc2c3n(c(=NC(=O)c4cnc(N)nc4)nc12)CCN3 to recorded viability, T/C (system: 361931-004-R-J1-PDC multicell spheroid viability)
17.6

// map CC1(C)CCC(Nc2ncc(C(F)(F)F)c(-c3c[nH]c4c(P(C)(C)=O)c(C#N)ccc34)n2)CN1 (stereo unspecified) + Cc1nc(NC(=O)N2CCCC2C(N)=O)sc1-c1ccnc(C(C)(C)C(F)(F)F)c1 to recorded viability, T/C (system: 361931-004-R-J1-PDC multicell spheroid viability)
68.6

Item CC1(C)CCC(CN2CCN(c3ccc(C(=O)NS(=O)(=O)c4ccc(NCC5CCOCC5)c([N+](=O)[O-])c4)c(Oc4cnc5[nH]ccc5c4)c3)CC2)=C(c2ccc(Cl)cc2)C1 + COc1c(OCCCN2CCOCC2)ccc2c3n(c(=NC(=O)c4cnc(N)nc4)nc12)CCN3 with 361931-004-R-J1-PDC multicell spheroid viability - viability, T/C?
25.6

Missing value: viability, T/C, 361931-004-R-J1-PDC multicell spheroid viability, entry CC(=O)c1c(C)c2cnc(Nc3ccc(N4CCNCC4)cn3)nc2n(C2CCCC2)c1=O + CC(Nc1ccc2c(c1)OCCn1cc(N3C(=O)OCC3C(F)F)nc1-2)C(N)=O . Fill in?
48.9
